I'd be grateful if you could share measured koff for these entries.
- systemName: T1, recombinant human TIGIT (human, UniProt Q495A1 22-141, limits assumed)
- T1 construct: recombinant human TIGIT used in Carterra SPR; also called hTIGIT
- T1 sequence (looked up): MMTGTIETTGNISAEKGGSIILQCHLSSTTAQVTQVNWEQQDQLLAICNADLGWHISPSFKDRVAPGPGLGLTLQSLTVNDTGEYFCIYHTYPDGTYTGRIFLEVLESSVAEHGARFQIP
- protocolText: SPR Carterra, average
Form entry: value (s⁻¹) — number only.

(Q) Identify measured koff associated with TIGIT-SC134 (Fc fusion, VHH-Fc fusion in assay) VHH: EVQLVESGGGLVQPGGSLRLSCAASGFTLENNMMGWFRQAPGKEREFVAAISASGTLRAYADSVKGRFTISADNSKNTAYLQMNSLKPEDTAVYYCARWYRVNNWSPGYYYYMDVWGQGTLVTVSS
(A) 8.98e-05

(Q) Identify measured koff associated with TIGIT-SC87 (Fc fusion, VHH-Fc fusion in assay) VHH: EVQLVESGGGLVQPGGSLRLSCAASGSIDTINTMGWFRQAPGKEREFVAAITPSSRTTYYVDSVKGRFTISADNSKNTAYLQMNSLKPEDTAVYYCARWGGVTFGGVYPLEYWGQGTLVTVSS
(A) 0.00564

(Q) Identify measured koff associated with TIGIT-SC121 (Fc fusion, VHH-Fc fusion in assay) VHH: EVQLVESGGGLVQPGGSLRLSCAASGFTFSPSWMGWFRQAPGKEREWVASVLRGGYTWYADSVKGRFTISADNSKNTAYLQMNSLKPEDTAVYYCTTEGFDPWGQGTLVTVSS
(A) 0.00112

(Q) Identify measured koff associated with TIGIT-SC200 (Fc fusion, VHH-Fc fusion in assay) VHH: EVQLVESGGGLVQPGGSLRLSCAASGNTFSGGFMGWFRQAPGKEREWVASVLRGGYTWYADSVKGRFTISADNSKNTAYLQMNSLKPEDTAVYYCTRDGGFDPWGQGTLVTVSS
(A) 0.00143

Values were extracted from patent US20260184782A1.
